# Tested on: RAW-Dual (murine macrophage reporter line)
# TEST NAME: NF-kB reporter (SEAP) activity fold change vs agonist alone; higher = enhanced NF-kB activity
# SETUP CONDITIONS: modulator concentration 10 µM; agonist: LPS 0.1 ug/mL
Parameter NF-kB reporter: see the listing below.
Respond with the number and no other words.

Solved entries:
compound=O=C(Cn1c(=O)oc2ccccc21)N1Cc2cncnc2C1 system_tested="RAW-Dual (murine macrophage reporter line)" value_observed=1.04
compound=CCCCCOC(=O)COc1ccc(S(=O)(=O)c2ccc(OCC(=O)OCCCCC)cc2)cc1 system_tested="RAW-Dual (murine macrophage reporter line)" value_observed=0.964
compound=OC(Cn1cncn1)(Cn1cncn1)c1ccc(F)cc1F system_tested="RAW-Dual (murine macrophage reporter line)" value_observed=0.967

Problem: Recorded NF-kB reporter of COc1ccc(C=Nn2cnnc2)cc1COc1cc(C)c(Cl)cc1C(C)C , please.
Solution: 0.761

Problem: Recorded NF-kB reporter of COC(=O)C1=CN(CC2CCCO2)C=C(C(=O)OC)C1c1ccc(OC)cc1 (stereo unspecified) , please.
Solution: 1.04

Problem: Recorded NF-kB reporter of CNCCC(Oc1ccc(C(F)(F)F)cc1)c1ccccc1.Cl (stereo unspecified) , please.
Solution: 0.848

---

# Test system: RAW-Dual (murine macrophage reporter line)
# TEST NAME: IRF reporter (Lucia luciferase) activity fold change vs agonist alone; higher = enhanced IRF activity
# SETUP CONDITIONS: modulator concentration 10 µM; agonist: LPS 0.1 ug/mL
Entry flag: class 1 if IRF reporter reaches 1; class 0 if it does not.

molecule="CCOc1ccc(S(=O)(=O)N2C3CCC2CC(S(=O)(=O)c2ccccc2)C3)cc1 (stereo unspecified)" system_tested="RAW-Dual (murine macrophage reporter line)" category_label="class 1"
molecule=CS(=O)(=O)c1ccc(C2=C(c3ccccc3)C(=O)OC2)cc1 system_tested="RAW-Dual (murine macrophage reporter line)" category_label="class 0"
molecule=COc1ccc2oc(=O)c(C(=O)Nc3ccc(C(=O)O)cc3)cc2c1 system_tested="RAW-Dual (murine macrophage reporter line)" category_label="class 1"
molecule=Cl.Nc1ccn([C@@H]2O[C@H](CO)[C@@H](O)[C@@H]2O)c(=O)n1 system_tested="RAW-Dual (murine macrophage reporter line)" category_label="class 1"
molecule=CCCc1nc(-c2ccccc2)c(-c2ccc(OC)c(OC)c2)c(=O)[nH]1 system_tested="RAW-Dual (murine macrophage reporter line)" category_label="class 1"
molecule=COc1ccc(OS(=O)(=O)c2ccc3cc(OC)ccc3c2)cc1 system_tested="RAW-Dual (murine macrophage reporter line)" category_label="class 1"
molecule="COC(=O)Nc1nc2ccc(S(=O)c3ccccc3)cc2[nH]1 (stereo unspecified)" system_tested="RAW-Dual (murine macrophage reporter line)" category_label="class 0"
molecule=CCOc1ccccc1OCCCCOc1cccc(C)c1C system_tested="RAW-Dual (murine macrophage reporter line)" category_label="class 1"

Problem: Tell me whether IRF reporter is at least 1 here: Cn1c(=O)[nH]c2nnc(-c3ccncc3)nc2c1=O
Solution: class 1

Problem: Tell me whether IRF reporter is at least 1 here: Cc1cc(OCC(O)Cn2cnc3ccccc32)ccc1Cl (stereo unspecified)
Solution: class 0

Problem: Tell me whether IRF reporter is at least 1 here: COc1cc(C2Oc3cc(C4Oc5cc(O)cc(O)c5C(=O)C4O)ccc3OC2CO)ccc1O (stereo unspecified)
Solution: class 0

---

# Test system: RAW-Dual (murine macrophage reporter line)
# TEST NAME: NF-kB reporter (SEAP) activity fold change vs agonist alone; higher = enhanced NF-kB activity
# SETUP CONDITIONS: modulator concentration 10 µM; agonist: CpG ODN 1826 0.5 ug/mL
OBSERVED PROPERTY: NF-kB reporter

Problem: Recorded NF-kB reporter of NC(=O)c1c(NC(=O)CN2C(=O)C(=Cc3ccc(Cl)cc3Cl)SC2=S)sc2c1CCCC2 , please.
Solution: 0.936

Problem: Recorded NF-kB reporter of CCCCc1c(C)nc(NN=C(C)c2cccc([N+](=O)[O-])c2)nc1O , please.
Solution: 0.954

Problem: Recorded NF-kB reporter of O=C(COCc1ccccc1)NC1CCC(F)(F)CC1 , please.
Solution: 0.891

Problem: Recorded NF-kB reporter of CCS(=O)(=O)N1CCN(c2ccc(Nc3ncc(C(N)=O)c(NC4CC4)n3)cc2)CC1.Cl , please.
Solution: 1.08

Problem: Recorded NF-kB reporter of Nc1ccn(C[C@@H](CO)OCP(=O)(O)O)c(=O)n1 , please.
Solution: 1

Problem: Recorded NF-kB reporter of c1ccc2oc(SCCCCSc3nc4ccccc4o3)nc2c1 , please.
Solution: 0.959

Problem: Recorded NF-kB reporter of CC(=NN1CCN(C2c3ccccc3-c3ccccc32)CC1)c1ccccc1O , please.
Solution: 0.953

Problem: Recorded NF-kB reporter of NCCCCC(NC(CCc1ccccc1)C(=O)O)C(=O)N1CCCC1C(=O)O (stereo not given) , please.
Solution: 1.33

Problem: Recorded NF-kB reporter of Cl.Cl.Fc1ccc(C(c2ccc(F)cc2)N2CCN(CC=Cc3ccccc3)CC2)cc1 , please.
Solution: 0.834

Problem: Recorded NF-kB reporter of O=c1sn(-c2cccc3ccccc23)c(=O)n1Cc1ccccc1 , please.
Solution: 0.647

---

# System: RAW-Dual (murine macrophage reporter line)
# TEST NAME: IRF reporter (Lucia luciferase) activity fold change vs agonist alone; higher = enhanced IRF activity
# SETUP CONDITIONS: modulator concentration 10 µM; agonist: 3'3'-cGAMP 10 ug/mL
OBSERVED PROPERTY: IRF reporter
Respond with the number and no other words.

compound=C(=C\c1ccccc1)/CN1CCN(C(c2ccccc2)c2ccccc2)CC1 observed_property="IRF reporter" value_observed=0.828
compound=CC1(C)COC(=O)C1=NNc1ccc([N+](=O)[O-])cc1 observed_property="IRF reporter" value_observed=1.03
compound=COc1ccc(CC(=O)Nc2ccc(C)c(N3CCCCC3=O)c2)cc1OC observed_property="IRF reporter" value_observed=0.937

Problem: Recorded IRF reporter of CCC(C(=O)Nc1cc(Cl)cc(Cl)c1)c1ccccc1 (stereo unspecified) , please.
Solution: 1.09

Problem: Recorded IRF reporter of COc1ccc(CC(=O)N2CCC(N3CCC(OC)CC3)CC2)cc1OC , please.
Solution: 0.949

Problem: Recorded IRF reporter of Cc1nnc(C)n1N=Cc1ccc(Cl)c([N+](=O)[O-])c1 , please.
Solution: 0.898

---

# System: RAW-Dual (murine macrophage reporter line)
# TEST NAME: NF-kB reporter (SEAP) activity fold change vs agonist alone; higher = enhanced NF-kB activity
# SETUP CONDITIONS: modulator concentration 10 µM; agonist: LPS 0.1 ug/mL
OBSERVED PROPERTY: NF-kB reporter
Respond with the number and no other words.

compound=Clc1nc(N2CCOCC2)nc(N(c2ccccc2)c2ccccc2)n1 observed_property="NF-kB reporter" value_observed=0.908
compound=Cc1cn(-c2cc(NC(=O)c3ccc(C)c(Nc4nccc(-c5cnccn5)n4)c3)cc(C(F)(F)F)c2)cn1 observed_property="NF-kB reporter" value_observed=1.17
compound="CC(C(=O)O)c1ccc(C(=O)c2cccs2)cc1 (stereo unspecified)" observed_property="NF-kB reporter" value_observed=1.08
compound="CCC(=O)N1CCCC1c1nc2ccccc2n1CCOc1ccc(Cl)cc1 (stereo unspecified)" observed_property="NF-kB reporter" value_observed=1.15
compound=Cl.O[C@@H](c1cc(C(F)(F)F)nc2c(C(F)(F)F)cccc12)[C@H]1CCCCN1 observed_property="NF-kB reporter" value_observed=0.59
compound=Cc1ccc(OCCCOc2cccc3cccnc23)c(C)c1 observed_property="NF-kB reporter" value_observed=1.1

Turning now to a further compound:
Problem: Recorded NF-kB reporter of CCC(=O)c1c(O)cc(O)cc1O , please.
Solution: 1.1

---

Parameter IRF reporter: see the listing below.
# Test system: RAW-Dual (murine macrophage reporter line)
# TEST NAME: IRF reporter (Lucia luciferase) activity fold change vs agonist alone; higher = enhanced IRF activity
# SETUP CONDITIONS: modulator concentration 10 µM; agonist: LPS 0.1 ug/mL

Solved entries:
compound=CCOc1cccc2sc(=NC(=O)c3ccc(S(=O)(=O)N4CCOCC4)cc3)n(C)c12 value_observed=1.06
compound=CC[C@@H]([C@H](C)O)n1ncn(-c2ccc(N3CCN(c4ccc(OC[C@@H]5CO[C@@](Cn6cncn6)(c6ccc(F)cc6F)C5)cc4)CC3)cc2)c1=O value_observed=1.18
compound="CN1CCN(CC(O)Cn2c3ccccc3c3ccccc32)CC1.O=C(O)C(=O)O (centres undefined)" value_observed=1.39
compound="COc1ccc(CNC2CCCc3ccccc32)c(OC)c1 (centres undefined)" value_observed=1.23
compound=CCCC1=NN2C(=N)C(=Cc3cccc(OCc4ccccc4F)c3)C(=O)N=C2S1 value_observed=1.6
compound="CC1(C)CC(=O)C2=C(C1)OC(N)=C(C#N)C2c1ccccc1C(F)(F)F (centres undefined)" value_observed=1.22
compound=Brc1ccc(-c2cc(-c3ccccc3)nc(N3CCCCC3)n2)cc1 value_observed=1.17
compound=CCOC(=O)[C@H](CCc1ccccc1)N[C@@H](C)C(=O)N1CCC[C@H]1C(=O)O.O=C(O)/C=C\C(=O)O value_observed=0.916

Turning now to a further compound:
Problem: Any idea what IRF reporter came out for COC(=O)C(NC(=O)C(C)(C)C)C12CC3CC(CC(C3)C1)C2 (centres undefined) on RAW-Dual (murine macrophage reporter line)?
Solution: 1.38
